- EXPERIMENTAL SYSTEM: hP2X7 (Homo sapiens)
- Construct: expressed in transfected cells; host or cells: HEK293 cells, stably transfected (HEK-hP2X7)
- Sequence (Q99572 whole entry): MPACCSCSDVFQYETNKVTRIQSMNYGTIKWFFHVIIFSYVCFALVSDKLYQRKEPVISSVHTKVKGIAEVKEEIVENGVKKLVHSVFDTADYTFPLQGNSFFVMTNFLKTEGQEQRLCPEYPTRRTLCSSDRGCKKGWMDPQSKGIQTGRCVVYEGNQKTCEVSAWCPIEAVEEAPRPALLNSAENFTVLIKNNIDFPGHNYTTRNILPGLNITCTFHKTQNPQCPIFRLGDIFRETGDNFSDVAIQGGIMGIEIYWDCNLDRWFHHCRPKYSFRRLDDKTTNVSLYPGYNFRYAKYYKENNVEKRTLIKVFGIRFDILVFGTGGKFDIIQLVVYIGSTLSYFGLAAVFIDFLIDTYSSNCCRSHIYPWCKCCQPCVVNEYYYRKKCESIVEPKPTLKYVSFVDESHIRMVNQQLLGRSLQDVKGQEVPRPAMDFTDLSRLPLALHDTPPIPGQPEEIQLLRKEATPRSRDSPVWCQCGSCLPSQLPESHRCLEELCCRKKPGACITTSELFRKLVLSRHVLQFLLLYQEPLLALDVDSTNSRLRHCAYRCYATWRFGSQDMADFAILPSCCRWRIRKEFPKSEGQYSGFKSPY
- ASSAY PROTOCOL: ATP-induced ethidium+ uptake in stably transfected HEK-hP2X7 cells (flow cytometry)
- Format: cell-based
- MEASUREMENT CONDITIONS: EC50 of ATP, ethidium+ uptake, in presence of 30 μM 6-FPHMA
RESULT TYPE: EC50 (µM)
Give the value, in units of µM, as a plain number.

Query string: What value of EC50 has been reported for the following compound? Nc1ncnc2c1ncn2[C@@H]1O[C@H](COP(=O)(O)OP(=O)(O)OP(=O)(O)O)[C@@H](O)[C@H]1O [ATP, adenosine 5′-triphosphate]
Result string: 557

Origin of the recorded values: paper PMC9496321
